Provide the reported inhibition of each item.
- EXPERIMENTAL_PROTOCOL: loss of swimming-algae plug formation – whole organism, Chlamydomonas reinhardtii, WT vs cilia-less mutant, absorbance, 96-well, primary screen (AID 463189);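 also: 0% = wild type cc124 cells in DMSO and 100% = ciliumless bld1 mutant cells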
- PARTICULARS: Chlamydomonas reinhardtii gravitaxis, OD600 absorbance, 2 days; at 10 µM; active compounds read high
Activity calls are given as the source filed them.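 The calls were made as follows: active = inhibition at or above 50% relative to wild type and mutant plate controls; inactive = inhibition below 50%.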

Input line: Answer with reported inhibition of "CC(C)(C)c1cc(/C=C(\C#N)C(N)=S)cc(C(C)(C)C)c1O"
Output line: 35.4% (inactive)

Input line: Answer with reported inhibition of "O=C1NCC2(CCN(CCc3ccccc3)CC2)O1"
Output line: -9.32% (inactive)

Input line: Answer with reported inhibition of "Cc1scc2c1N(C(=O)CN1CCN(C)CC1)c1ccccc1NC2=O"
Output line: -1.6% (inactive)
